- protocol-summary: Pharmacokinetic properties in SD rats
- Format: in vivo
- test-conditions: rat; SD rats (male), intravenous, 20 mg/kg; blood, biological assay (agar well method)
Binary classification by AUC, with 50 µg·h/mL as an inclusive lower bound for criterion met; all other cases are criterion not met.

Past entries and their recorded results:
| compound | label |
| --- | --- |
| Nc1nc(C(=NOC(C(=O)O)c2ccc(O)c(O)c2)C(=O)NC2C(=O)N3C(C(=O)[O-])=C(CSc4nc(N)c5c([n+]4N)CCC5)CSC23)cs1 (stereo not drawn) [I-8(a)] | criterion met |
| Cc1c(N)nc(SCC2=C(C(=O)[O-])N3C(=O)C(NC(=O)/C(=N\OC(C(=O)O)c4ccc(O)c(O)c4)c4csc(N)n4)[C@H]3SC2)[n+](N)c1N (stereo partly drawn) [I-1(a)] | criterion met |
| Cn1cc[n+]2c(SCC3=C(C(=O)[O-])N4C(=O)C(NC(=O)C(=NOC(C(=O)O)c5ccc(O)c(O)c5)c5csc(N)n5)C4SC3)nc(N)cc12 (stereo not drawn) [I-11(a)] | criterion not met |
| C[n+]1c(N)cc(N)nc1SCC1=C(C(=O)[O-])N2C(=O)C(NC(=O)C(=NOC(C(=O)O)c3ccc(O)c(O)c3)c3csc(N)n3)C2SC1 (stereo not drawn) [I-3(a)] | criterion met |
| C[n+]1cc(CS(=O)(=O)O)c(N)nc1SCC1=C(C(=O)[O-])N2C(=O)C(NC(=O)/C(=N\OC(C(=O)O)c3ccc(O)c(O)c3)c3csc(N)n3)[C@H]2SC1 (stereo partly drawn) [I-7(a)] | criterion met |
| C[n+]1cc(C(=O)O)c(N)nc1SCC1=C(C(=O)[O-])N2C(=O)C(NC(=O)/C(=N\OC(C(=O)O)c3ccc(O)c(O)c3)c3csc(N)n3)[C@H]2SC1 (stereo partly drawn) [I-6(a)] | criterion not met |
| Nc1cc[n+](N)c(SCC2=C(C(=O)[O-])N3C(=O)C(NC(=O)C(=NOC(C(=O)O)c4ccc(O)c(O)c4)c4csc(N)n4)C3SC2)n1 (stereo not drawn) [I-4(a)] | criterion met |
| C[n+]1ccc(N)nc1SCC1=C(C(=O)[O-])N2C(=O)C(NC(=O)/C(=N\OC(C(=O)O)c3ccc(O)c(O)c3)c3csc(N)n3)[C@H]2SC1 (stereo partly drawn) [I-5(a)] | criterion not met |

Note: attention shifts to another entry.
Task item: Check if AUC >= 50 µg·h/mL (inclusive). Item: Cn1c(N)n[n+]2c(SCC3=C(C(=O)[O-])N4C(=O)C(NC(=O)C(=NOC(C(=O)O)c5ccc(O)c(O)c5)c5csc(N)n5)[C@H]4SC3)nc(N)cc12 (stereo partly drawn) [I-10(a)]
Reply: criterion met

###

The reader will find reported MIC values listed item by item below.
- Tested on: S. faecalis 29212A
- protocol-summary: Minimum inhibitory concentration, agar dilution
- Type: cell-based
- test-conditions: Enterococcus faecalis, 29212A, 20 h, read-out: Minimum Inhibitory Concentration
- Experimental: The minimum inhibitory concentration was determined by diluting the test compounds according to 2-fold dilution, suspending them in M uller-Hinton agar medium, inoculating the test strains having 10^7 CFU per 1 ml into the medium and then culturing the medium at 37° C. for 20 hours.
// return numeric value only (unit: µg/mL, not printed)

| molecule | study-target | MIC (µg/mL) |
| --- | --- | --- |
| Cc1c(N)nc(SCC2=C(C(=O)[O-])N3C(=O)C(NC(=O)/C(=N\OC(C(=O)O)c4ccc(O)c(O)c4)c4csc(N)n4)[C@H]3SC2)[n+](N)c1N (stereo partly drawn) | S. faecalis 29212A | 16 |

Task item: Give its MIC value. Item: C[n+]1cc(C(=O)O)c(N)nc1SCC1=C(C(=O)[O-])N2C(=O)C(NC(=O)/C(=N\OC(C(=O)O)c3ccc(O)c(O)c3)c3csc(N)n3)[C@H]2SC1 (stereo partly drawn)
Reply: 32

Task item: What value of MIC has been recorded for this entry: C[n+]1c(N)cc(N)nc1SCC1=C(C(=O)[O-])N2C(=O)C(NC(=O)C(=NOC(C(=O)O)c3ccc(O)c(O)c3)c3csc(N)n3)C2SC1 (stereo not drawn)
Reply: 32
